# EXPERIMENT NOTES: qHTS assay to identify small molecule antagonists of the estrogen receptor alpha (ER-alpha) signaling pathway - cell viability counter screen (AID 743074);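 further: HEK293 cells carrying ER-alpha-UAS-bla reporter stimulated with 17beta-estradiol; on the % scale 0 is the no-effect control and ±100 the full control effect; nearly all actives have a fitted effect of over 45% in size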
# STUDY CONDITIONS: ERalpha-bla HEK293 viability, CellTiter-Glo luminescence, 18 h; series mostly up to 69.4 µM
Inconclusive results are not listed. Activity calls are given as the source filed them. The call rests on the fitted dose curve.
VALUE KIND: activity, negative = cytotoxicity

CCCCCC[C@@H](CCC)C(=O)O: inactive
N#CC1(O)CCCCC1: inactive
C1=C\CC/C=C\CC/C=C\CC/1: inactive
CN(C)CCOC(c1ccc(Cl)cc1)c1ccccn1 (stereo not given): inactive
NS(=O)(=O)c1cc2c(cc1C(F)(F)F)NC(Cc1ccccc1)NS2(=O)=O (stereo not given): inactive
O=C(O)c1cccc(C(=O)O)n1: inactive

Would you mind giving activity, negative = cytotoxicity for every molecule in the list below?
1. NC(=S)Nc1cccc2ccccc12
2. CC(C=O)Cc1ccc(C(C)C)cc1 (stereo not given)
3. NC(N)=NS(=O)(=O)c1ccc(N)cc1
4. Cc1ccc(N)cc1[N+](=O)[O-]

["13.6% [at 6.72 µM] (inactive)", "inactive", "inactive", "inactive"]
